Data credit: patent US10065990B2

# Test system: KBM5-T315I (human chronic myelogenous leukemia)
# measurement_protocol: MTT cancer cell growth inhibition
# Type: cell-based
# measurement_parameters: Homo sapiens, 72 h, MTT, 72 hours incubation, KBM5-T315I cells; read-out: GI50 KBM5-T315I
result_type: GI50 (nM)
Expressed in nM, but write only the number.

A selection of reference data follows.
INSERT INTO measurements (smiles_input, measured_value) VALUES
  ('C/C=C1\NC(=O)c2nc(ccc2F)CNC(=O)C[C@@H](/C=C/CCS)OC(=O)[C@H](Cc2cccc3ccccc23)NC1=O', 15),
  ('C/C=C1\NC(=O)c2nc(ccc2F)CNC(=O)C[C@@H](/C=C/CCSC(C)=O)OC(=O)[C@@H](C)NC1=O', 31);

Input line: Name the recorded GI50 of the molecule listed here: C/C=C1\NC(=O)c2nc(ccc2F)CNC(=O)C[C@@H](/C=C/CCS)OC(=O)[C@H](Cc2ccccc2)NC1=O
Output line: 28
